Ref: patent USRE43327E1

system: 4 cell lines (A375, MDA-MB-231, PC-3, SK-OV-3); test: Growth inhibition with DFMO, average over 4 cell lines; format: cell-based; settings: Table 3; average over cell lines, with DFMO; read-out: AVG. EC50
Please provide measured pEC50 for the entries that follow.
As a rule, pEC50 stands for the negative log10 of the concentration, concentration in M.

Any idea what its pEC50 is? The molecule is `CCCCCCCNCCCC[C@@H](NCCCCCCC)C(=O)NCCCNCCCCNCCCN`
5.29

Any idea what its pEC50 is? The molecule is `CCCCCC(=O)NCCCC[C@@H](N)C(=O)NCCCNCCCCNCCCN`
4.94

Any idea what its pEC50 is? The molecule is `CN(C)c1cccc2c(S(=O)(=O)NCCCC[C@H](N)C(=O)NCCCNCCCCNCCCN)cccc12`
5.89

----------
test system: 4 cell lines (A375, MDA-MB-231, PC-3, SK-OV-3); assay: Growth inhibition with DFMO, average over 4 cell lines; format: cell-based; settings: Table 3; average over cell lines, with DFMO; read-out: AVG. EC50
ENDPOINT_NAME: pEC50
As a rule, pEC50 stands for the negative log10 of the concentration, concentration in M.

Any idea what its pEC50 is? The compound is CCCCCCCCCCCCCCCCCC(=O)NCCCC[C@H](N)C(=O)NCCCNCCCCNCCCN [IA2]
7.85

Any idea what its pEC50 is? The compound is CCCCC/C=C/C/C=C/CCCCCCCC(=O)NCCCC[C@H](N)C(=O)NCCCNCCCCNCCCN [IIIA6]
7.26

Any idea what its pEC50 is? The compound is CCCCCCCCCCCCCCCC(=O)NCCCC[C@@H](N)C(=O)NCCCNCCCCNCCCN [IB4]
6.98

Any idea what its pEC50 is? The compound is NCCCNCCCCNCCCNC(=O)[C@@H](N)CCCCNCC1CC2C=CC1C2 (stereo partly drawn) [IVA25]
5.72

Any idea what its pEC50 is? The compound is CCCCCCCCCCCCCCCCCC(=O)NCCCC[C@@H](N)C(=O)NCCCNCCCCNCCCN [IB2]
7.08

Any idea what its pEC50 is? The compound is CCCCCCCC/C=C/CCCCCCCC(=O)NCCCC[C@H](N)C(=O)NCCCNCCCCNCCCN [IIIA2]
7.47

Any idea what its pEC50 is? The compound is CC(C)=CCC[C@H](C)CCNCCCC[C@@H](N)C(=O)NCCCNCCCCNCCCN [IVB28]
4.97

Any idea what its pEC50 is? The compound is CC(C)(C)CNCCCC[C@H](N)C(=O)NCCCNCCCCNCCCN [VA22]
5.16

Any idea what its pEC50 is? The compound is CCCCCCCC/C=C\CCCCCCCC(=O)NCCCC[C@H](N)C(=O)NCCCNCCCCNCCCN [IIIA1]
6.58

----------
Please provide measured log10 of EC50 for the entries that follow.
system: 4 cell lines (A375, MDA-MB-231, PC-3, SK-OV-3); experiment: Growth inhibition with DFMO, average over 4 cell lines; format: cell-based; conditions: Table 3; average over cell lines, with DFMO; read-out: AVG. EC50
All values: base-10 log of EC50 in µM.

Query the reported log10 of EC50 for 4 cell lines (A375, MDA-MB-231, PC-3, SK-OV-3); item: C[C@H](CCC(=O)NCCCC[C@H](N)C(=O)NCCCNCCCCNCCCN)[C@H]1CC[C@H]2[C@@H]3[C@H](O)C[C@@H]4C[C@H](O)CC[C@]4(C)[C@H]3C[C@H](O)[C@]12C [IIIA7]
-0.06

Query the reported log10 of EC50 for 4 cell lines (A375, MDA-MB-231, PC-3, SK-OV-3); item: NCCCNCCCCNCCCNC(=O)[C@@H](N)CCCCNCC1CCCCC1 [IVA27]
0.67

Query the reported log10 of EC50 for 4 cell lines (A375, MDA-MB-231, PC-3, SK-OV-3); item: CC(C)(C)CCNCCCC[C@@H](N)C(=O)NCCCNCCCCNCCCN [IVB22]
0.12

Query the reported log10 of EC50 for 4 cell lines (A375, MDA-MB-231, PC-3, SK-OV-3); item: NCCCNCCCCNCCCNC(=O)[C@H](N)CCCCNCC1CC2CCC1C2 (stereo partly drawn) [IVB26]
0.53

Query the reported log10 of EC50 for 4 cell lines (A375, MDA-MB-231, PC-3, SK-OV-3); item: NCCCNCCCCNCCCNC(=O)[C@H](N)CCCCNC(=O)C12CC3CC(CC(C3)C1)C2 [IB30]
0.09

Query the reported log10 of EC50 for 4 cell lines (A375, MDA-MB-231, PC-3, SK-OV-3); item: CCCCCCNCCCC[C@@H](N)C(=O)NCCCNCCCCNCCCN [IVB5]
-0.06

Query the reported log10 of EC50 for 4 cell lines (A375, MDA-MB-231, PC-3, SK-OV-3); item: NCCCNCCCCNCCCNC(=O)[C@@H](CCCCNCC1CCCCC1)NCC1CCCCC1 [IVF27]
0.25

Query the reported log10 of EC50 for 4 cell lines (A375, MDA-MB-231, PC-3, SK-OV-3); item: NCCCNCCCCNCCCNC(=O)[C@H](N)CCCCNC(=O)c1ccc(-c2ccccc2)cc1 [IB26]
-0.02

Query the reported log10 of EC50 for 4 cell lines (A375, MDA-MB-231, PC-3, SK-OV-3); item: NCCCNCCCCNCCCNC(=O)[C@H](N)CCCCNC(=O)CC1CC2CCC1C2 (stereo partly drawn) [IB37]
1.55

Query the reported log10 of EC50 for 4 cell lines (A375, MDA-MB-231, PC-3, SK-OV-3); item: CCCC(CCC)NCCCC[C@H](N)C(=O)NCCCNCCCCNCCCN [VA26]
0.59

Query the reported log10 of EC50 for 4 cell lines (A375, MDA-MB-231, PC-3, SK-OV-3); item: CCCC(=O)NCCC[C@@H](N)C(=O)NCCCNCCCCNCCCN [IB10]
1.07

Query the reported log10 of EC50 for 4 cell lines (A375, MDA-MB-231, PC-3, SK-OV-3); item: CC(C)(C)CCNCCCC[C@H](N)C(=O)NCCCNCCCCNCCCN [IVA22]
0.00

Query the reported log10 of EC50 for 4 cell lines (A375, MDA-MB-231, PC-3, SK-OV-3); item: NCCCNCCCCNCCCNC(=O)[C@@H](N)CCCCNCC12CC3CC(CC(C3)C1)C2 [VA27]
0.81

Query the reported log10 of EC50 for 4 cell lines (A375, MDA-MB-231, PC-3, SK-OV-3); item: CCCCCCCCCCCCCCCC(=O)NCCCC[C@H](N)C(=O)NCCCNCCCCNCCCN [IA4]
-1.11

Query the reported log10 of EC50 for 4 cell lines (A375, MDA-MB-231, PC-3, SK-OV-3); item: CCCCNCCCC[C@@H](N)C(=O)NCCCNCCCCNCCCN [IVB3]
0.34

Query the reported log10 of EC50 for 4 cell lines (A375, MDA-MB-231, PC-3, SK-OV-3); item: CC(C)(C)C(=O)NCCCC[C@@H](N)C(=O)NCCCNCCCCNCCCN [IB34]
0.92

Query the reported log10 of EC50 for 4 cell lines (A375, MDA-MB-231, PC-3, SK-OV-3); item: CC(C)CNCCCC[C@@H](N)C(=O)NCCCNCCCCNCCCN [IVB23]
0.25
